Biological target: Rac GTPase-activating protein 1 (Homo sapiens, UniProt Q9H0H5)
Sequence (Q9H0H5 whole entry): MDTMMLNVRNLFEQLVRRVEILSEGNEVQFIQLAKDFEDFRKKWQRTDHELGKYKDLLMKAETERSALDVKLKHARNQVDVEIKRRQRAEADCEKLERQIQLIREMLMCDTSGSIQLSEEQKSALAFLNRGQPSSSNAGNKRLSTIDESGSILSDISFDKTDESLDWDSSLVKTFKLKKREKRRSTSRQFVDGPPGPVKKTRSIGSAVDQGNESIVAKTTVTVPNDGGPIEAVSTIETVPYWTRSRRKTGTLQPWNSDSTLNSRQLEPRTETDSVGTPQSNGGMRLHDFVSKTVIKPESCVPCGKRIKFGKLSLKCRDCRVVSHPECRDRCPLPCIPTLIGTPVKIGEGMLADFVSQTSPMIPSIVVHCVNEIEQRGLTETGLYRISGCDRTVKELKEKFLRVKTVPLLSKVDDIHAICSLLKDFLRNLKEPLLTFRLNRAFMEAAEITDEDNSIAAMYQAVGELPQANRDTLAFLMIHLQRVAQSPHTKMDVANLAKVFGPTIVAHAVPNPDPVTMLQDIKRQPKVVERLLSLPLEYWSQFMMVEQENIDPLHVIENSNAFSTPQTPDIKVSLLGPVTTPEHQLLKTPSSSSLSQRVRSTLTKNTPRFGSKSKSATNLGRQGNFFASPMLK
Experiment: blockers of MgcRacGAP-driven Rac1 GTP hydrolysis – biochemical, ADP Hunter fluorescence, primary and confirmatory, confirmation (AID 624330)
Assay type: functional
Activity calls are given as the source filed them. No rule for the calls is given here.
Measured IC50 accompanies every entry in the list below.

A selection of reference data follows.
{"compound": "CC(NCCCOc1cccc2ccccc12)c1ccccc1 (centres undefined)", "IC50": "161 µM (active)"}
{"compound": "CCOc1cc(-c2cc(-c3ccc(N)cc3)nc(N)c2C#N)ccc1O", "IC50": "131 µM (active)"}
{"compound": "COc1cc(/C=N/NC(=S)NCCN2CCOCC2)ccc1O", "IC50": "19.9 µM (active)"}
{"compound": "O=C(Nc1ccc(O)cc1)c1ccccc1OCc1ccccc1", "IC50": "30.1 µM (active)"}
{"compound": "CC1N(C)c2cccc3cccc(c23)N1C", "IC50": "25 µM (active)"}
{"compound": "O=C1C(Cl)=C(NCCc2ccccc2)C(=O)c2ccccc21", "IC50": "218 µM (active)"}
{"compound": "O=C(Nc1ccc(O)cc1)c1cc2n(n1)C(C(F)(F)F)CC(c1ccco1)N2 (centres undefined)", "IC50": "27.7 µM (active)"}
{"compound": "CCO/C(O)=C1/Sc2ccccc2N=C1C", "IC50": "53.5 µM (active)"}

The reported IC50 of the compound `COc1cccc(OC)c1C(=O)N1CCN(Cc2ccc3c(c2)OCO3)CC1` was 248 µM (active)

The reported IC50 of the compound `COc1cccc(CN2CCN(Cc3cccc(Oc4ccccc4)c3)CC2)c1OC` was 93.1 µM (active)

The reported IC50 of the compound `O=C1NC(=S)S/C1=C1\Sc2ccccc2N1CCCS(=O)(=O)O` was 123 µM (active)

The reported IC50 of the compound `O=C(Nc1ccccc1Cl)Oc1ccc(-c2ccccc2)cc1` was 11.3 µM (active)

The reported IC50 of the compound COc1ccc(N2C(=O)CC(Nc3ccc(N4CCOCC4)cc3)C2=O)c(OC)c1 (centres undefined) was 174 µM (active)

The reported IC50 of the compound `Cc1cc(-c2nnc(S)n2/N=C/c2ccccc2[N+](=O)[O-])[nH]n1` was 107 µM (active)
